The measurements presented in this section are drawn from PubChem BioAssay AID1963427.

- Test system: 317291-083-R-J1-PDC complex spheroid growth;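 further: compound exposure lasted seven days after spheroids formed for three days; 100% = DMSO vehicle control wells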
- EXPERIMENT SUMMARY: Anticancer human tumor 317291-083-R-J1-PDC patient-derived soft tissue sarcoma cell line growth inhibition [Asc]
- APPLIED CONDITIONS: second compound 0.3 µM; first compound 1 µM; hits give low values
Reported values of viability, T/C for individual entries
Dear colleague, please return just the value in %, with no unit written.

Use these answered entries as a reference point.
(Q) Record request: viability, T/C value, item CNC(C)C(=O)NC1CN(S(=O)(=O)c2cccc(S(=O)(=O)N3CCC4CCC(C(=O)NC(c5ccccc5)c5ccccc5)N4C(=O)C(NC(=O)C(C)NC)C3)c2)CCC2CCC(C(=O)NC(c3ccccc3)c3ccccc3)N2C1=O (stereo not drawn) + CCN1C(C(=O)NC23CCC(C(=O)O)(CC2)CC3)C(c2cccc(Cl)c2F)C2(C(=O)Nc3cc(Cl)ccc32)C12CCCCC2
(A) 41.1

(Q) Same thing, different compound: CCN1CCN(Cc2ccc(Nc3ncc(F)c(-c4cc(F)c5nc(C)n(C(C)C)c5c4)n3)nc2)CC1 + CCN1C(C(=O)NC23CCC(C(=O)O)(CC2)CC3)C(c2cccc(Cl)c2F)C2(C(=O)Nc3cc(Cl)ccc32)C12CCCCC2
(A) 79.6

Further cases:
(Q) Quick one: viability, T/C of C#Cc1c(F)ccc2cc(O)cc(-c3ncc4c(N5CC6CCC(C5)N6)nc(OCC56CCCN5CC(F)C6)nc4c3F)c12 (stereo not drawn) + CCN1C(C(=O)NC23CCC(C(=O)O)(CC2)CC3)C(c2cccc(Cl)c2F)C2(C(=O)Nc3cc(Cl)ccc32)C12CCCCC2 ?
(A) 126

(Q) Could you do the same for C=C(F)C(=O)N1CCN(c2nc(OCC3CCCN3C)nc3c2CCN(c2cccc4cccc(Cl)c24)C3)CC1CC#N (stereo not drawn) + CCN1C(C(=O)NC23CCC(C(=O)O)(CC2)CC3)C(c2cccc(Cl)c2F)C2(C(=O)Nc3cc(Cl)ccc32)C12CCCCC2 , please?
(A) 86.8

(Q) Try this compound too: O=C(c1cc(Cc2n[nH]c(=O)c3ccccc23)ccc1F)N1CCN(C(=O)C2CC2)CC1 + CCN1C(C(=O)NC23CCC(C(=O)O)(CC2)CC3)C(c2cccc(Cl)c2F)C2(C(=O)Nc3cc(Cl)ccc32)C12CCCCC2
(A) 91.2

(Q) Another compound to look at: C=CC(=O)N1CCN(c2nc(=O)n(-c3c(C)ccnc3C(C)C)c3nc(-c4c(O)cccc4F)c(F)cc23)C(C)C1 (stereo not drawn) + CCN1C(C(=O)NC23CCC(C(=O)O)(CC2)CC3)C(c2cccc(Cl)c2F)C2(C(=O)Nc3cc(Cl)ccc32)C12CCCCC2
(A) 93.3

(Q) Entry to check: O=C(c1ccc(F)c(F)c1Nc1ccc(I)cc1F)N1CC(O)([C@@H]2CCCCN2)C1 + CCN1C(C(=O)NC23CCC(C(=O)O)(CC2)CC3)C(c2cccc(Cl)c2F)C2(C(=O)Nc3cc(Cl)ccc32)C12CCCCC2
(A) 23

(Q) What do we get for COc1c(OCCCN2CCOCC2)ccc2c3n(c(=NC(=O)c4cnc(N)nc4)nc12)CCN3 + CCN1C(C(=O)NC23CCC(C(=O)O)(CC2)CC3)C(c2cccc(Cl)c2F)C2(C(=O)Nc3cc(Cl)ccc32)C12CCCCC2 ?
(A) 17.4
